Test: Aqueous solubility of the compound at pH 4.6
Format: physicochemical
metric: solubility (µg/mL)
The figure you give is taken to be in µg/mL; do not add the unit.

stdin: Please report the recorded solubility for CCCN(C(=O)OCOC(=O)/C=C/C(=O)O)C(=O)c1cn2ncnc(Nc3cc(C(=O)NC4CC4)ccc3C)c2c1C .
stdout: 367

====

Assay: Cmax in rat at 10 mg/kg, po administered with 1:1 PEG 300/water as vehicle
Format: ADME, organism-based
Design: dose 10 mg/kg, route oral
Conditions: in vivo
metric: Cmax (µM)
The figure you give is taken to be in µM; do not add the unit.

stdin: Please report the recorded Cmax for CCCNC(=O)c1cn2ncnc(Nc3cc(C(=O)NC4CC4)ccc3C)c2c1C [BMS-582949] .
stdout: 6.5
